- Test system: Sodium Channel, Site 2 (gp)
- run_description: Functionality assay, Eurofins Panlabs 475010
- Type: biochemical, guinea pig
experimental_endpoint: IC50

Asked: What value of IC50 has been reported for the following compound? C[C@@H]1CN(C(=N)N)N=C1c1ccc(F)cc1O
Given back: > 30 µM

----------
- assayed_target: Uptake, Norepinephrine (hu) (Homo sapiens, UniProt P23975)
- Construct: Eurofins Panlabs 302000
- Sequence (P23975 whole entry): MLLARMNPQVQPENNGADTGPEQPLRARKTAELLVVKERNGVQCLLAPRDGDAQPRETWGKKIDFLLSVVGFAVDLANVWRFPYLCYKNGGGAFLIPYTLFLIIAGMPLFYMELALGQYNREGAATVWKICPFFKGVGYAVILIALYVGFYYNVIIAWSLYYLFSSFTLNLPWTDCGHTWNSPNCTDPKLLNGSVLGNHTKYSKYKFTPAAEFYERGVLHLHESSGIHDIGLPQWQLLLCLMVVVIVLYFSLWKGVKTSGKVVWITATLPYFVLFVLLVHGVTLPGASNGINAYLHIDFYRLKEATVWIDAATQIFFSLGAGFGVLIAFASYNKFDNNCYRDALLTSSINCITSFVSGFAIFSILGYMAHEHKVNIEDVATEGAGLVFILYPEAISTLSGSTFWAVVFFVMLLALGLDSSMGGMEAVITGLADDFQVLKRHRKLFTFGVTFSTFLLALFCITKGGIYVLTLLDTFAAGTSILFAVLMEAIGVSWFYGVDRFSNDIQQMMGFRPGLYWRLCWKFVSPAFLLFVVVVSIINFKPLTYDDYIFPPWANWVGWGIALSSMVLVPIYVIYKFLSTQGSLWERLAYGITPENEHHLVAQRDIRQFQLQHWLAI
- run_description: Functionality assay, Uptake, Eurofins Panlabs 302000
- Type: cell-based
experimental_endpoint: IC50 (µM)
State just the number; it will be interpreted in µM.

Asked: What value of IC50 has been reported for the following molecule? C[C@@H]1CN(C(=N)N)N=C1c1ccc(F)cc1O
Given back: 3.78
